tested on: MDA-MB-436 cells; test: Growth inhibition assay against BRCA mutant human breast cancer MDA-MB-436 cell line (CCK-8); format: cell-based; settings: Homo sapiens, MDA-MB-436, […], proliferation of MDA-MB-436 cells, 7 days
Measured attribute: IC50 (nM)
Numbers only, in nM.

As a guide, the following entries are already answered.
| Smiles structure | Subject of test | Units | IC50 |
| --- | --- | --- | --- |
| CNC(=O)c1ccc(N2CCN(Cc3ccc4c([nH]c(=O)c5cn(C)nc54)c3F)CC2)c(C)n1 | MDA-MB-436 cells | nM | 21.7 |
| CNC(=O)c1ccc(N2CCN(Cc3ccc4c(c3)[nH]c(=O)c3occc34)CC2)c(F)n1 | MDA-MB-436 cells | nM | 0.58 |
| CNC(=O)c1ccc(N2CCN(Cc3ccc4c([nH]c(=O)n5cccc45)c3F)CC2)c(C)n1 | MDA-MB-436 cells | nM | 4.58 |
| CNC(=O)c1ccc(N2CCN(Cc3ccc4c([nH]c(=O)c5c(F)cnn54)c3Cl)CC2)c(F)n1 | MDA-MB-436 cells | nM | 5.58 |
| CNC(=O)c1ccc(C2CCN(Cc3ccc4c([nH]c(=O)c5occc54)c3F)CC2)c(F)n1 | MDA-MB-436 cells | nM | 5.09 |

Please give IC50 for each item listed below.
1. CCNC(=O)c1ccc(N2CCN(Cc3ccc4c([nH]c(=O)c5occc54)c3F)CC2)c(F)n1
2. CNC(=O)c1ccc(N2CCN(Cc3cc4[nH]c(=O)c5cn(C)nc5c4cc3F)CC2)c(F)n1

a:
3.4
20.8

Please give IC50 for each item listed below.
1. CNC(=O)c1ccc(N2CCN(Cc3cc4[nH]c(=O)c5c(F)cnn5c4cc3F)CC2)c(C)n1
2. CNC(=O)c1ccc(N2CCN(Cc3ccc4c(c3)[nH]c(=O)c3ncsc34)CC2)c(C)n1
3. CNC(=O)c1ccc(N2CCN(Cc3cc4[nH]c(=O)c5c(C)cnn5c4cc3F)CC2)c(Cl)n1
4. CNC(=O)c1ccc(N2CCN(Cc3ccc4c([nH]c(=O)c5c(F)cnn54)c3F)C[C@H]2C)c(F)n1
5. CNC(=O)c1ccc(N2CCN(Cc3ccc4c([nH]c(=O)c5c(C)cnn54)c3C)CC2)c(C)n1
6. CNC(=O)c1ccc(N2CCN(Cc3ccc4c([nH]c(=O)c5cn[nH]c54)c3F)CC2)c(C)n1

a:
1. 1.76
2. 7.69
3. 18.5
4. 15.4
5. 42.5
6. 9.02

Please give IC50 for each item listed below.
1. CNC(=O)c1ccc(N2CCN(Cc3ccc4c([nH]c(=O)c5cc(C)nn54)c3F)CC2)c(Cl)n1
2. CNC(=O)c1ccc(N2CCN(Cc3ccc4c5c(c(=O)[nH]c4c3)CNC5)CC2)c(C)n1
3. CNC(=O)c1ccc(N2CCN(Cc3cc4[nH]c(=O)c5c(C)noc5c4cc3F)CC2)c(F)n1
4. CNC(=O)c1ccc(N2CCN(Cc3ccc4c5c(c(=O)[nH]c4c3)CN(C)C5)CC2)c(C)n1
5. CNC(=O)c1ccc(N2CCN(Cc3ccc4c(c3)[nH]c(=O)c3ccoc34)CC2)cn1
6. CNC(=O)c1ncc(N2CCN(Cc3ccc4c([nH]c(=O)c5c(C)cnn54)c3F)CC2)cc1F
7. CNC(=O)c1ccc(N2CCN(Cc3ccc4c([nH]c(=O)c5nn(C)cc54)c3F)CC2)c(F)n1

a:
1: 1.19; 2: 58.2; 3: 9.79; 4: 11.1; 5: 1.56; 6: 55.3; 7: 3.76

Please give IC50 for each item listed below.
1. CNC(=O)c1ccc(N2CCN(Cc3ccc4c([nH]c(=O)c5c(Cl)c(C)nn54)c3F)CC2)c(F)n1
2. CNC(=O)c1ccc(C2=CCN(Cc3ccc4c([nH]c(=O)c5c(C)cnn54)c3F)CC2)cn1

a:
1. 1.11
2. 19.3

###

test system: MDA-MB-436 cells; assay: Growth inhibition assay against BRCA mutant human breast cancer MDA-MB-436 cell line (CCK-8); assay type: cell-based; settings: Homo sapiens, MDA-MB-436, […], proliferation of MDA-MB-436 cells, 7 days
Measured attribute: log10 of IC50 (log10 of the value in nM)
Could you please treat all values as log10 of IC50 in nM?

As a guide, the following entries are already answered.
| Smiles structure | log10 of IC50 |
| --- | --- |
| CNC(=O)c1ccc(N2CCN(Cc3ccc4c([nH]c(=O)c5c(C)cnn54)c3F)CC2)c(F)c1 | 1.98 |
| CNC(=O)c1ccc(N2CCN(Cc3cc4[nH]c(=O)c5occc5c4cc3C)CC2)c(F)n1 | 1.51 |
| CNC(=O)c1ccc(N2CCN(Cc3ccc4c(c3)[nH]c(=O)c3ccn(C)c34)CC2)c(F)n1 | 0.05 |

Please give log10 of IC50 for each item listed below.
1. CNC(=O)c1ccc(N2CCN(Cc3ccc4c([nH]c(=O)c5c(C)cnn54)c3F)C[C@H]2C)c(F)n1
2. O=C(NC1CC1)c1ccc(N2CCN(Cc3ccc4c([nH]c(=O)n5ccnc45)c3F)CC2)c(F)n1
3. CNC(=O)c1ccc(N2CCN(Cc3ccc4c([nH]c(=O)c5c(C)cnn54)c3Cl)CC2)c(F)n1
4. Cc1cnn2c1c(=O)[nH]c1c(F)c(CN3CCN(c4ccc(C(=O)NCC(F)F)nc4F)CC3)ccc12
5. N#Cc1ccc(N2CCN(Cc3ccc4c([nH]c(=O)c5c(F)cnn54)c3F)CC2)c(F)n1

a:
1: 1.21; 2: 1.72; 3: 1.67; 4: 0.70; 5: 0.93

Please give log10 of IC50 for each item listed below.
1. CNC(=O)c1ccc(N2CCN(Cc3ccc4c(c3)[nH]c(=O)c3nocc34)CC2)c(F)n1
2. O=c1[nH]c2c(F)c(CN3CCN(c4ccc(-c5nnc[nH]5)nc4F)CC3)ccc2c2ccoc12
3. CNC(=O)c1ccc(N2CCN(Cc3ccc4c([nH]c(=O)c5c(C(F)(F)F)cnn54)c3F)CC2)c(F)n1

a:
0.28
1.11
0.65

Please give log10 of IC50 for each item listed below.
1. Cc1cnn2c1c(=O)[nH]c1c(F)c(CN3CCN(c4ccc(C#N)nc4F)CC3)ccc12
2. CNC(=O)c1ccc(N2CCN(Cc3ccc4c(c3)[nH]c(=O)c3cc[nH]c34)CC2)c(C)n1
3. CNC(=O)c1ccc(N2CCN(Cc3cc(F)c4c(c3)[nH]c(=O)c3cncn34)CC2)c(F)n1
4. CNC(=O)c1ccc(N2CCN(Cc3ccc4c([nH]c(=O)c5c(C)cnn54)c3F)CC2)c(C(F)(F)F)n1
5. CCNC(=O)c1ccc(N2CCN(Cc3ccc4c([nH]c(=O)c5c(C)cnn54)c3F)CC2)c(F)n1

a:
[1.85, 0.24, 0.30, 1.36, 0.86]

Please give log10 of IC50 for each item listed below.
1. CNC(=O)c1ccc(N2CCN(Cc3cc4[nH]c(=O)n5nccc5c4cc3F)CC2)c(F)n1
2. CNC(=O)c1ccc(N2CCN(Cc3ccc4c([nH]c(=O)n5ccnc45)c3F)CC2)c(C)n1

a:
[1.37, 1.37]

###

This section lists IC50 readings for PDE3A (Homo sapiens (Human), UniProt Q14432).

As a guide, the following entries are already answered.
| Smiles structure | IC50 |
| --- | --- |
| CNC(=O)c1ccc(C2=CCN(Cc3ccc4c([nH]c(=O)c5c(C)cnn54)c3F)CC2)cn1 | > 25 µM |
| O=C(NC1CC1)c1ccc(N2CCN(Cc3ccc4c([nH]c(=O)c5c(F)cnn54)c3F)CC2)c(F)n1 | > 30 µM |
| CNC(=O)c1ccc(N2CCN(Cc3ccc4c([nH]c(=O)c5c(C(F)(F)F)cnn54)c3F)CC2)c(F)n1 | > 30 µM |
| CNC(=O)c1ccc(N2CCN(Cc3ccc4c([nH]c(=O)c5ccoc54)c3F)CC2)c(C)n1 | 8.57 µM |

Please give IC50 for each item listed below.
1. CNC(=O)c1ccc(N2CCN(Cc3ccc4c([nH]c(=O)n5c(C)cnc45)c3F)CC2)c(F)n1
2. CNC(=O)c1ccc(N2CCN(Cc3ccc4c([nH]c(=O)c5c(F)cnn54)c3F)CC2)c(C)n1
3. CNC(=O)c1ccc(N2CCN(Cc3ccc4c([nH]c(=O)c5nn(C)cc54)c3F)CC2)c(F)n1
4. Cc1cnn2c1c(=O)[nH]c1c(F)c(CN3CCN(c4ccc(C(=O)NC5CC5)nc4F)CC3)ccc12

a:
["> 25 µM", "10.5 µM", "> 30 µM", "> 25 µM"]

Please give IC50 for each item listed below.
1. CNC(=O)c1ccc(N2CCN(Cc3ccc4c([nH]c(=O)c5c(Cl)cnn54)c3F)CC2)c(F)n1
2. CNC(=O)c1ccc(N2CCN(Cc3ccc4c([nH]c(=O)c5cnn(C)c54)c3F)CC2)c(F)n1

a:
["> 30 µM", "> 30 µM"]

Source listed as patent US20250215013A1.
